# credit: paper PMC4860574

subject-of-test: ABCG2 (Homo sapiens, UniProt Q9UNQ0)
Sequence (Q9UNQ0 1-655): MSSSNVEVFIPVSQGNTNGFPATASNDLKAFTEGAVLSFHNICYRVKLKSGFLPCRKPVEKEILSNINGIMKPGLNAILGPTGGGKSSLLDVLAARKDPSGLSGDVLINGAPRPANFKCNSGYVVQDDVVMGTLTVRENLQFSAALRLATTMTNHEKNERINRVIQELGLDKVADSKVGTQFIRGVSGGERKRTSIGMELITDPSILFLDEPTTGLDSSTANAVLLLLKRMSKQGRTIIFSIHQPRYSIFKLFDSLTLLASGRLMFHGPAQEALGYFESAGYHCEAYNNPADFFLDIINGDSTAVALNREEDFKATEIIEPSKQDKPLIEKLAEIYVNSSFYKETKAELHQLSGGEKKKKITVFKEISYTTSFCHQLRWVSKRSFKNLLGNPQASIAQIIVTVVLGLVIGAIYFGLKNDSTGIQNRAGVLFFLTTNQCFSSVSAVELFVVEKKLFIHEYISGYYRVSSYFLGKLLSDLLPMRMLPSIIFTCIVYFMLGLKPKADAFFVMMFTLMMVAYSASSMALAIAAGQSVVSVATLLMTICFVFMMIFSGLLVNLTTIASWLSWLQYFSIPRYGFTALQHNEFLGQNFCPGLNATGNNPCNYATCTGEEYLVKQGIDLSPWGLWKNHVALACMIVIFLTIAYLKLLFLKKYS
pIC50: −log10 of the molar value.

given-smiles	pIC50
Cc1ccc(NC(=O)c2ccc(CN3CC[C@H](N(C)C)C3)c(C(F)(F)F)c2)cc1Nc1nccc(-c2cncnc2)n1	5.53
